Molecular target: human D4.4 (Homo sapiens)
Sequence (P21917 1-419): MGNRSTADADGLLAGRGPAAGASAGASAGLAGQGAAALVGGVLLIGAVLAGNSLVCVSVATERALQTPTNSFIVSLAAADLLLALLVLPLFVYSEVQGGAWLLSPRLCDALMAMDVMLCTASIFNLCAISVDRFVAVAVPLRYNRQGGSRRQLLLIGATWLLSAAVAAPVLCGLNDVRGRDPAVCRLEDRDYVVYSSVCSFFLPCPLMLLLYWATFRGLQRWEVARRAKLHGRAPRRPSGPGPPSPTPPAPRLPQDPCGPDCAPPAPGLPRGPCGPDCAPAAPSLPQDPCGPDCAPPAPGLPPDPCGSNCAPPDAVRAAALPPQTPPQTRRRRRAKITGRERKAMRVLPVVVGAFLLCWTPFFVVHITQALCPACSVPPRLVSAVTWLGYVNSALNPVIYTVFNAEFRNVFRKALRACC
Test: radioligand binding assay, dopamine D4.4 receptor, [3H]spiperone
Settings: CHO cell membranes, mean of two to five experiments in triplicate, read-out: Ki D4.4
pKi: −log10 of the molar value.
Value Kind: pKi

COc1c(C(=O)N2CCC(F)(CNCc3ccc(C)cn3)CC2)csc1Br	5.30 to 6.30
COc1cscc1C(=O)N1CCC(F)(CNCc2ccc(C)cn2)CC1	5.30 to 6.30
Cc1ccc(CNCC2(F)CCN(C(=O)c3ccco3)CC2)nc1	< 5.30

Query: Would you kindly share the measured pKi for Cc1ccc(CNCC2(F)CCN(C(=O)c3sc4sccc4c3Cl)CC2)nc1 ?
Response: 6.30 to 7.30

Query: Would you kindly share the measured pKi for Cc1ccc(CNCC2(F)CCN(C(=O)c3ccsc3)CC2)nc1 ?
Response: < 5.30

Query: Would you kindly share the measured pKi for COc1c(C(=O)N2CCC(F)(CNCc3ccc(C)cn3)CC2)csc1Cl ?
Response: 5.30 to 6.30

Query: Would you kindly share the measured pKi for Cc1ccc(CNCC2(F)CCN(C(=O)c3sc(Br)c4c3OCCO4)CC2)nc1 ?
Response: 5.30 to 6.30
